Cited source: patent US5885814A

Parameter Activity remaining (%) Lys-Ala: see the listing below.
# System: DPP-like protease from F. hepatica E/S products
# Format: biochemical, Fasciola hepatica
# Condition Set: substance 1 mM; substrate Lys-Ala-AMC
# number only, unit % dropped from output

These solved cases illustrate the format of a correct answer.
[[record]]
compound = "[Zn]"
assay_readout = "Activity remaining (%) Lys-Ala"
observed_result = 14

[[record]]
compound = "[Fe]"
assay_readout = "Activity remaining (%) Lys-Ala"
observed_result = 5

[[record]]
compound = "N[C@@H](CS)C(=O)O"
assay_readout = "Activity remaining (%) Lys-Ala"
observed_result = 105

[[record]]
compound = "[Mg+2]"
assay_readout = "Activity remaining (%) Lys-Ala"
observed_result = 76


# return Activity remaining (%) Lys-Ala of `[Mn+2]` (system: DPP-like protease from F. hepatica E/S products)
66

# return Activity remaining (%) Lys-Ala of `[Co]` (system: DPP-like protease from F. hepatica E/S products)
28

====

# Test system: DPP-like protease from F. hepatica E/S products
# Type: biochemical, Fasciola hepatica
# Condition Set: substance 1 mM; substrate Lys-Ala-AMC
Assay Readout: Activity remaining (%) Lys-Ala
# number only, unit % dropped from output

These solved cases illustrate the format of a correct answer.
[[record]]
compound = "[Cd]"
observed_result = 19

[[record]]
compound = "[Pb]"
observed_result = 103

[[record]]
compound = "O[C@H](CS)[C@H](O)CS (racemic)"
observed_result = 62

[[record]]
compound = "OCCS"
observed_result = 75


Here's the next entry for you.
Consider the compound `[Ca+2]` . State its measured Activity remaining (%) Lys-Ala.
62
